This collection of values is drawn from patent US20090226442A1.

Collected EC50 values appear next to each entry.
target_or_system: soluble human RON protein (R&D Systems, catalog 1947) (UniProt Q04912 25-571)
Sequence (Q04912 25-571): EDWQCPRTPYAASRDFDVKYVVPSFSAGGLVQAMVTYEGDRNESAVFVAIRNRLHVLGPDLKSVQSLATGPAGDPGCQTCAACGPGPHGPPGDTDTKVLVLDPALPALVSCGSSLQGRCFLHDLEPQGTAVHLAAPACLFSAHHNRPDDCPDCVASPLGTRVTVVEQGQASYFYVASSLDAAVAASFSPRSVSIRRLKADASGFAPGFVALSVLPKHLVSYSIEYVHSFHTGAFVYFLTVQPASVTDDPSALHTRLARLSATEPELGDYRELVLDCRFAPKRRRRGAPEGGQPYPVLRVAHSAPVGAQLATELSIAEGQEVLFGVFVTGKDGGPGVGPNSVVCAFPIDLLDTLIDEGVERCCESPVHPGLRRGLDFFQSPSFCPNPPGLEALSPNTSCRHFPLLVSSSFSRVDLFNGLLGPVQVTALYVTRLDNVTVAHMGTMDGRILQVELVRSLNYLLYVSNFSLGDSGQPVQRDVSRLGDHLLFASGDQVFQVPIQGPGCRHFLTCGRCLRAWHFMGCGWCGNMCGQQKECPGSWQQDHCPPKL
assay_text: ELISA
Dear colleague, please return just the value in µg/mL, with no unit written.

Solved entries (count: 3):
- 1P3B2 murine monoclonal anti-RON antibody (antibody, V domains shown) VH: EVQLQQSGPELEKPGASVKISCKASGYSFTGYNMNWVKQSNGESLEWIGDIDPYYGGTRYNQKFKGKATLTVDKSSSTAYMQLKSLTSEDSAVYYCAREGRGFAYWGQGTLVTVSA VL: DIQMTQSPASLSASVGETVTITCRASENIYSYLAWYQKKQGKSPQLLVYNAKTSVEGVPSRFSGSGSGIQFSLKINSLQPEDFGSYYCHCQHHYGTLPTFGGGTKLEIK: 0.011
- 1P4A3 murine monoclonal anti-RON antibody (antibody, V domains shown) VH: EVQLQQSGPELEKPGASVMISCKASGYSFTGYNMNWVKQSTGKSLEWIGDIDPYYDGTRYNQKFKGKATLTADKSSSTAYMQLKSLTSEDSAVYYCTREGRGFAYWGQGTLVTVSA VL: DIQMTQSPASLSASVGETVTITCRASENIYSYLAWYQQKQGKSPQLLVYNAKTLAGGVPSRFSGSGSGTQFSLKINSLQPEDFGSYYCQHYYGTPLTFGAGTKLELK: 0.018
- 1P4A12 murine monoclonal anti-RON antibody (antibody, V domains shown) VH: EVQLQQSGPELVKPGASMKISCKASGYSFTGYTMNWVKQSHGKKLEWIGLINPYNGGTIYNQKFKGKATLTVDKSSSTAYMELLSLTSEDSAVYYCARWLRRGGYAMDYWGQGASVTVSS VL: DILLTQSPAILSVSPGERVSFSCRASQSIGTSIHWYQQRTNGSPRLLIKFASESISGIPSRFSGSGSGTDFTLSINSVESEDIADYYCQQSDSWPLTFGAGTKLEVK: 0.016

As a next step, examine the binder that follows.
Specify measured EC50 for 1P5B10 murine monoclonal anti-RON antibody (antibody, V domains shown) VH: EVQLQQSGPELVKPGASMKISCRAAGFSFTGYTMNWVKQSHGKSLEWIGLINLNNGGTSHNQKFKGKATLTVDKSSSTAYMELLSLTSEDSAVYYCARWLRRGGYAMDYWGQGISVTVSS VL: DILLTQSPAILSVSPGERVSFSCRASQNIGTSIHWYQQRTNGSPRLLIKYASESISGIPSRFSGSGSGTDFTLSINSVESEDIADYYCQQSDSWPLTFGAGTKLELK . 0.013
